- System: Streptococcus pneumoniae, R6
*1 amine or outer side, *2 acyl side, *3 side chain or, on linkers, in order; H or OH if unused. Where a SMILES comes first, the peptide text is derived from it. Bridges are numbered along the chain shown (N, C = ends). [ ]: non-standard residue; d: D form. The star is where a group is joined. ξ: configuration not given here. Phe(3,5-F2) = N[C@@H](Cc1cc(F)cc(F)c1)C(=O)O; Pro(4S-Me) = C[C@@H]1CN[C@H](C(=O)O)C1; Pro(4R-Me) = C[C@H]1CN[C@H](C(=O)O)C1; NMeaThr = CN[C@H](C(=O)O)[C@H](C)O; ξPro(4R-Me) = C[C@H]1CNC(C(=O)O)C1; NH(4-Et-phenyl) = CCc1ccc(N*)cc1; NMeT = CN[C@H](C(=O)O)[C@@H](C)O; NH(4-Me-phenyl) = Cc1ccc(N*)cc1; ξNMeThr = CNC(C(=O)O)[C@@H](C)O; aThr = C[C@H](O)[C@H](N)C(=O)O; ξPip = O=C(O)C1CCCCN1; CO = O=C([*:1])[*:2]; ξP = O=C(O)C1CCCN1
Measurement type: MIC (µM)
Answers are plain numbers, in µM.

Please review the entries below; each comes with its answer.
{"columns": ["Compound", "MIC [µM]"],
 "data": [
  ["Cc1ccc(NC(=O)N[C@@H](Cc2cc(F)cc(F)c2)C(=O)N[C@@H]2C(=O)N3CCC[C@H]3C(=O)N(C)[C@@H]([C@H](C)O)C(=O)N[C@@H](C)C(=O)N3C[C@H](C)C[C@H]3C(=O)O[C@H]2C)cc1 [Compound 208] ({NH(4-Me-phenyl)-CO}-[Phe(3,5-F2)][aThr]P[NMeaThr]A[Pro(4R-Me)]; ester 2-C)", 0.02],
  ["CCc1ccc(NC(=O)N[C@@H](Cc2cc(F)cc(F)c2)C(=O)N[C@@H]2C(=O)N3CCC[C@H]3C(=O)N(C)[C@@H]([C@@H](C)O)C(=O)N[C@@H](C)C(=O)N3C[C@@H](C)C[C@H]3C(=O)O[C@H]2C)cc1 [Compound 37] ({NH(4-Et-phenyl)-CO}-[Phe(3,5-F2)][aThr]P[NMeT]A[Pro(4S-Me)]; ester 2-C)", 0.024],
  ["Cc1ccc(NC(=O)N[C@@H](Cc2cc(F)cc(F)c2)C(=O)N[C@H]2COC(=O)[C@@H]3C[C@@H](C)CN3C(=O)[C@H](C)NC(=O)C([C@@H](C)O)N(C)C(=O)[C@@H]3CCCN3C2=O)cc1 (stereo partly drawn) [Compound 322] ({NH(4-Me-phenyl)-CO}-[Phe(3,5-F2)]SP[ξNMeThr]A[Pro(4R-Me)]; ester 2-C)", 0.156]
]}

Dear colleague, could you send me MIC for each of the items below? Thanks.
1. C[C@@H]1C[C@H]2C(=O)OC[C@H](NC(=O)[C@H](Cc3ccccc3)NC(=O)Nc3ccc(OC(F)(F)F)cc3)C(=O)N3CCC[C@H]3C(=O)N3CCCC[C@H]3C(=O)N[C@@H](C)C(=O)N2C1
2. Cc1ccc(NC(=O)N[C@@H](Cc2cc(F)cc(F)c2)C(=O)N[C@@H]2C(=O)N3CCCC3C(=O)N3CCCCC3C(=O)N[C@@H](C)C(=O)N3C[C@H](C)CC3C(=O)O[C@H]2C)cc1 (stereo partly drawn) [Compound 39] ({NH(4-Me-phenyl)-CO}-[Phe(3,5-F2)][aThr][ξP][ξPip]A[ξPro(4R-Me)]; ester 2-C)
3. Cc1ccc(NC(=O)N[C@@H](Cc2ccccc2)C(=O)N[C@H]2COC(=O)C3C[C@H](C)CN3C(=O)[C@H](C)NC(=O)C3CCCCN3C(=O)C3CCCN3C2=O)cc1 (some centres unmarked)
4. CN[C@@H]1[C@H](O)[C@H](NC)[C@H]2O[C@@]3(O)C(=O)C[C@@H](C)O[C@H]3O[C@@H]2[C@H]1O [Spectinomycin, spectinomycin, reference compound]

OUTPUT:
1. 0.2
2. 0.05
3. 0.2
4. 6.3

Values were extracted from patent US10457707B2.
